Test: qHTS assay for small molecule agonists of the p53 signaling pathway (AID 651631); note: nearly all actives have a fitted effect of over 15% in size
Conditions: HCT-116 p53RE-bla reporter, beta-lactamase FRET ratio, 16 h; series mostly up to 73.3 µM
Records with an inconclusive call do not appear. The source made the active and inactive calls. Calls come from the whole dose curve.
Labels: true (1) (active), false (0) (inactive)

- MOLECULE: "CCOC(=O)c1ccc(I)cc1"
  LABEL: "false (0)"
- MOLECULE: "CC1CC(C)C(=O)C1=O (configuration not stated)"
  LABEL: "false (0)"
- MOLECULE: "O=c1c(O)c(-c2ccc(O)cc2)oc2cc(O)cc(O)c12"
  LABEL: "false (0)"
- MOLECULE: "CCC1CO1 (configuration not stated)"
  LABEL: "false (0)"
- MOLECULE: "NC1[C@H]2CN(c3nc4c(cc3F)c(=O)c(C(=O)O)cn4-c3ccc(F)cc3F)C[C@@H]12 (some centres not stated)"
  LABEL: "true (1)"
- MOLECULE: "Clc1cc(Cl)nc(Cl)n1"
  LABEL: "false (0)"
- MOLECULE: "Oc1cccc(O)c1O"
  LABEL: "false (0)"
- MOLECULE: "CCOC(=O)c1ccccc1C(=C1C=C(Br)C(=O)C(Br)=C1)c1cc(Br)c(O)c(Br)c1"
  LABEL: "true (1)"
- MOLECULE: "Cc1ccc(CO)cc1"
  LABEL: "false (0)"
- MOLECULE: "C[C@@H](O[C@H]1OCCN(Cc2n[nH]c(=O)[nH]2)[C@H]1c1ccc(F)cc1)c1cc(C(F)(F)F)cc(C(F)(F)F)c1"
  LABEL: "true (1)"
- MOLECULE: "CC(O)c1ccccc1 (configuration not stated)"
  LABEL: "false (0)"
- MOLECULE: "Cc1ccco1"
  LABEL: "false (0)"
- MOLECULE: "O=C(O)C[C@H](NC(=O)OCc1ccccc1)C(=O)O"
  LABEL: "false (0)"
- MOLECULE: "CC(CCC(=O)O)C(=O)O (configuration not stated)"
  LABEL: "false (0)"
- MOLECULE: "CCOC(C)=O"
  LABEL: "false (0)"
- MOLECULE: "O=C1NC(=O)c2cc([N+](=O)[O-])ccc21"
  LABEL: "false (0)"
- MOLECULE: "O=C=Nc1ccc(Cl)c(Cl)c1"
  LABEL: "false (0)"

---

Assay: qHTS RealTime-Glo MT Cell Viability Assay in HepG2 cells - 24 hour (AID 1224867); note: nearly all actives have a fitted effect of over 50% in size
Settings: RealTime-Glo luminescence; series mostly up to 76.8 µM
Records with an inconclusive call do not appear. Activity calls are given as the source filed them. Calls follow the shape of the dose curve; as a rule, active = well fitted cell-killing curve with a large enough effect in the repeat runs; inconclusive = weak or mixed curves; inactive = flat fitted curve, though single readings scatter.

- LINE_NOTATION: "C[C@]1(Cn2ccnn2)[C@H](C(=O)O)N2C(=O)C[C@H]2S1(=O)=O"
  outcome: "inactive"
- LINE_NOTATION: "Oc1cccc(O)c1O"
  outcome: "inactive"
- LINE_NOTATION: "O=C1CCCCCCCCCCOCCCCO1"
  outcome: "inactive"

---

Assay: qHTS assay to identify small molecule agonists of the estrogen receptor beta (ER-beta) signaling pathway - cell viability counter screen (AID 1259380); note: nearly all actives have a fitted effect of over 30% in size; note: potency is the fitted concentration of half-maximal effect
Details: ER-beta-bla HEK293T viability, CellTiter-Glo luminescence, 16 h; series mostly up to 92.4 µM
Records with an inconclusive call do not appear. Active and inactive are the calls of the source. Calls follow the shape of the dose curve; as a rule, active = well fitted cell-killing curve with a large enough effect in the repeat runs; inconclusive = weak or mixed curves, or effect the other way; inactive = flat fitted curve, though single readings scatter.

- COMPOUND: "COC(=O)c1nc(Cl)c(Cl)nc1N"
  Potency: "29.8 µM (active)"
- COMPOUND: "CN1C(=O)OC(C)(C)C1=O"
  Potency: "inactive"
- COMPOUND: "CN1C(=O)N(c2ccccc2Br)Cc2cnc(Nc3ccc4c(c3)OCC(CO)O4)nc21 (stereo unspecified)"
  Potency: "34.4 µM (active)"
- COMPOUND: "CC/C=C1/OC(=O)c2ccccc21"
  Potency: "inactive"
- COMPOUND: "O=c1cc(-c2ccccc2)oc2ccc3ccccc3c12"
  Potency: "24.3 µM (active)"
- COMPOUND: "CN1CCCC(n2nc(Cc3ccc(Cl)cc3)c3ccccc3c2=O)CC1 (stereo unspecified)"
  Potency: "26.6 µM (active)"
- COMPOUND: "CCCCN(CCCC)C(C(N)=O)c1ccc(OC)cc1 (stereo unspecified)"
  Potency: "inactive"
- COMPOUND: "C1COC1"
  Potency: "inactive"
- COMPOUND: "O=C(CCc1ccc(O)cc1)c1c(O)cc(O)cc1O"
  Potency: "inactive"
- COMPOUND: "CCC(C)COC(C)=O (stereo unspecified)"
  Potency: "inactive"
- COMPOUND: "OCCN1CCN(CCCN2c3ccccc3Sc3ccc(Cl)cc32)CC1"
  Potency: "23.7 µM (active)"
- COMPOUND: "Oc1cccc(O)c1O"
  Potency: "inactive"
- COMPOUND: "CCCCC(CC)CN (stereo unspecified)"
  Potency: "inactive"
- COMPOUND: "C[C@H]1C[C@H](O)c2ccsc2S1(=O)=O"
  Potency: "inactive"
- COMPOUND: "C[C@@H](O)[C@H]1C(=O)N2C(C(=O)O)=C([C@H]3CCCO3)S[C@H]12"
  Potency: "inactive"
- COMPOUND: "CCCCCCC(C)(C)C(=O)O"
  Potency: "inactive"
- COMPOUND: "COc1ccccc1NC(=O)c1cc2ccccc2cc1O"
  Potency: "54.5 µM (active)"
- COMPOUND: "CCCCCCCCC(CCCCCC)C(=O)O (stereo unspecified)"
  Potency: "8.63 µM (active)"
- COMPOUND: "CC1(C)[C@@H](OC(=O)CCC(=O)O)CC[C@]2(C)[C@H]3C(=O)C=C4[C@@H]5C[C@@](C)(C(=O)O)CC[C@]5(C)CC[C@@]4(C)[C@]3(C)CC[C@@H]12"
  Potency: "inactive"
- COMPOUND: "OC(CCN1CCCC1)(c1ccccc1)C1CCCCC1 (stereo unspecified)"
  Potency: "inactive"
- COMPOUND: "CCOc1cccc(-n2cc(C(=O)N3CCN(c4cc(C(=O)O)c5ccccc5c4)CC3)nc2-c2ccc(C)cc2)c1"
  Potency: "14.7 µM (active)"
